System: T. vaginalis trophozoites of the metronidazole-sensitive strain G3
Assay: Resorufin-based drug sensitivity assay
Type: cell-based, Trichomonas vaginalis
Settings: Trichomonas vaginalis, read-out: EC50 T. vaginalis, resorufin assay, 24 h + 2 h, 2% O2/98% N2; average of at least 3 independent determinations and SD
property_label: EC50 (nM)

A. Nc1ncnc2c1c(-c1ccc(Cl)c(Cl)c1)cn2[C@@H]1O[C@H](CO)[C@@H](O)[C@H]1O
B. Nc1ncnc2c1c(-c1ccccc1)cn2[C@@H]1O[C@H](CO)[C@@H](O)[C@H]1O
Could you tell me which of A and B has the lower EC50 reading? Field: selected label. Fill in the label of the entry you choose.
A
(A: 29 nM, B: 440 nM)

###

Test system: Human Embryonic Kidney (HEK) cells
Assay: Toxicity against Human Embryonic Kidney
Assay type: cell-based
Conditions: Homo sapiens, HEK293, read-out: EC50 HEK
pEC50: −log10 of the molar value.
property_label: pEC50

>>> test_result("Nc1ncnc2c1c(-c1ccccc1)cn2[C@@H]1O[C@H](CO)[C@@H](O)[C@H]1O")
"< 3.70"

Alright, here's another molecule for you.
Returns the measured pEC50 for the input molecule. Input: Nc1ncnc2c1c(-c1ccc(Cl)c(Cl)c1)cn2[C@@H]1O[C@H](CO)[C@@H](O)[C@H]1O
< 3.70

###

Test system: T. vaginalis trophozoites of the metronidazole-sensitive strain G3
Test: Resorufin-based drug sensitivity assay
Assay type: cell-based, Trichomonas vaginalis
Conditions: Trichomonas vaginalis, introduction, hit criterion
property_label: EC50

What EC50 appears in the records for this compound with T. vaginalis trophozoites of the metronidazole-sensitive strain G3? Cc1ncc([N+](=O)[O-])n1CCO [metronidazole, reference compound]
~0.3 µM

// provenance: paper PMC9586919
